Provide the reported AUC(0-t) of each item.
experiment: Phase 1 crossover pharmacokinetic study of tablet and capsule formulations, single oral dose
Assay type: in vivo, human
test_settings: male, human; Treatment A: one 20-mg Compound A API-in-capsule, oral, fasted, n = 18; plasma; geometric mean; read-out: AUC0-24
// return numeric value only (unit: ng·h/mL, not printed)

Return reported AUC(0-t); argument: CC(C)(O)c1ccc(-c2cnc3c(n2)N([C@H]2CC[C@H](O)CC2)C(=O)CN3)cn1 [O-Desmethyl metabolite]
7480

# input molecule: CO[C@H]1CC[C@H](N2C(=O)CNc3ncc(-c4ccc(C(C)(C)O)nc4)nc32)CC1 ; wanted: its AUC(0-t)
934

* * *

experiment: Pharmacokinetics of the metabolite produced in vivo after administration of 7.5-60 mg Compound A
test_settings: human, 60 mg, day 15 of once a day administration of about 60 mg of Compound A
reported_endpoint: Tmax (h)
Just the number in h, nothing appended.

Recorded Tmax for CC(C)(O)c1ccc(-c2cnc3c(n2)N([C@H]2CC[C@H](O)CC2)C(=O)CN3)cn1 [O-Desmethyl metabolite] , please?
3

* * *

experiment: Phase 1 food effect study (Part 2), single 20-mg oral dose of Compound A tablet, fed vs fasted
Assay type: in vivo, human
test_settings: male, human, plasma, po, 20 mg, Fasted (n = 11), single 20-mg oral dose of Compound A tablet; geometric mean
Provide the reported AUC(0-inf) of each item.
Your answer should be a plain number; it is taken to be in ng·h/mL.

Which AUC(0-inf) is listed for CO[C@H]1CC[C@H](N2C(=O)CNc3ncc(-c4ccc(C(C)(C)O)nc4)nc32)CC1 ?
1000

Reported AUC(0-inf) for CC(C)(O)c1ccc(-c2cnc3c(n2)N([C@H]2CC[C@H](O)CC2)C(=O)CN3)cn1 [O-Desmethyl metabolite] : what is it?
9830

* * *

experiment: Pharmacokinetics of the metabolite produced in vivo after administration of 7.5-60 mg Compound A
test_settings: human, 7.5 mg, day 1 of administration of about 7.5 mg of Compound A
reported_endpoint: Cmax (ng/mL)
Unit ng/mL implied. Number only.

What Cmax value was documented for this molecule, CC(C)(O)c1ccc(-c2cnc3c(n2)N([C@H]2CC[C@H](O)CC2)C(=O)CN3)cn1 [O-Desmethyl metabolite] ?
143

* * *

experiment: Pharmacokinetics of the metabolite produced in vivo after administration of 7.5-60 mg Compound A
test_settings: human, 45 mg, day 1 of administration of about 45 mg of Compound A
reported_endpoint: Tmax (h)
I only need the number, in h, no unit after it.

I am curious: what Tmax value has been reported for CC(C)(O)c1ccc(-c2cnc3c(n2)N([C@H]2CC[C@H](O)CC2)C(=O)CN3)cn1 [O-Desmethyl metabolite] ?
3

* * *

experiment: Pharmacokinetics of the metabolite produced in vivo after administration of 7.5-60 mg Compound A
test_settings: human, 15 mg, day 1 of administration of about 15 mg of Compound A
reported_endpoint: Cmax (ng/mL)
Just the number please, in ng/mL, no unit attached.

Cmax for CC(C)(O)c1ccc(-c2cnc3c(n2)N([C@H]2CC[C@H](O)CC2)C(=O)CN3)cn1 [O-Desmethyl metabolite] ?
309

* * *

experiment: Phase 1 food effect study (Part 2), single 20-mg oral dose of Compound A tablet, fed vs fasted
Type: in vivo, human
test_settings: male, human, plasma, po, 20 mg, Fasted (n = 11), single 20-mg oral dose of Compound A tablet; geometric mean
reported_endpoint: half-life (h)
Supply the numeric figure in h, leaving out any unit text.

Tell me the measured half-life of CO[C@H]1CC[C@H](N2C(=O)CNc3ncc(-c4ccc(C(C)(C)O)nc4)nc32)CC1 , please.
5.3

Fill in: half-life of CC(C)(O)c1ccc(-c2cnc3c(n2)N([C@H]2CC[C@H](O)CC2)C(=O)CN3)cn1 [O-Desmethyl metabolite] is ___
14.8

* * *

experiment: Pharmacokinetics of the metabolite produced in vivo after administration of 7.5-60 mg Compound A
test_settings: human, 45 mg, day 1 of administration of about 45 mg of Compound A
reported_endpoint: AUC(0-inf) (ng·h/mL)
Report only the number, with the unit ng·h/mL understood.

Which measured AUC(0-inf) value corresponds to CC(C)(O)c1ccc(-c2cnc3c(n2)N([C@H]2CC[C@H](O)CC2)C(=O)CN3)cn1 [O-Desmethyl metabolite] ?
27300

* * *

experiment: Pharmacokinetics of the metabolite produced in vivo after administration of 7.5-60 mg Compound A
test_settings: human, 15 mg, on day (number not given) of once a day administration of about 15 mg of Compound A
reported_endpoint: Cmax (ng/mL)
Your answer is read as ng/mL, so omit the unit and give the number.

Quick check: Cmax of CC(C)(O)c1ccc(-c2cnc3c(n2)N([C@H]2CC[C@H](O)CC2)C(=O)CN3)cn1 [O-Desmethyl metabolite] ?
458

* * *

experiment: Pharmacokinetics of the metabolite produced in vivo after administration of 7.5-60 mg Compound A
test_settings: human, 45 mg, day 15 of once a day administration of about 45 mg of Compound A
reported_endpoint: Tmax (h)
Enter your answer as a number in h; do not include the unit.

Reported Tmax for CC(C)(O)c1ccc(-c2cnc3c(n2)N([C@H]2CC[C@H](O)CC2)C(=O)CN3)cn1 [O-Desmethyl metabolite] : what is it?
2

* * *

experiment: Pharmacokinetics of the metabolite produced in vivo after administration of 7.5-60 mg Compound A
test_settings: human, 60 mg, day 1 of administration of about 60 mg of Compound A
reported_endpoint: half-life (min)
Note: unit min is implicit; provide only the numeric part.

What measured half-life goes with CC(C)(O)c1ccc(-c2cnc3c(n2)N([C@H]2CC[C@H](O)CC2)C(=O)CN3)cn1 [O-Desmethyl metabolite] ?
960

* * *

experiment: Phase 1 crossover pharmacokinetic study of tablet and capsule formulations, single oral dose
Format: in vivo, human
test_settings: male, human, plasma, oral; upon administration of about 20 mg of Compound A (protocol of Section 6.5.1)
reported_endpoint: half-life (h)
Write down the numeric answer in h and omit the unit.

Item under review: CC(C)(O)c1ccc(-c2cnc3c(n2)N([C@H]2CC[C@H](O)CC2)C(=O)CN3)cn1 [O-Desmethyl metabolite] . Reported half-life?
14.3

* * *

experiment: Pharmacokinetics of the metabolite produced in vivo after administration of 7.5-60 mg Compound A
test_settings: human, 30 mg, day 15 of once a day administration of about 30 mg of Compound A
reported_endpoint: AUC(0-inf) (µg·h/mL)
Expressed in µg·h/mL, but write only the number.

Please give the measured AUC(0-inf) for this molecule: CC(C)(O)c1ccc(-c2cnc3c(n2)N([C@H]2CC[C@H](O)CC2)C(=O)CN3)cn1 [O-Desmethyl metabolite]
118

* * *

experiment: Phase 1 crossover pharmacokinetic study of tablet and capsule formulations, single oral dose
Type: in vivo, human
test_settings: male, human, plasma, oral; upon administration of about 20 mg of Compound A (protocol of Section 6.5.1)
reported_endpoint: Cmax (ng/mL)
Answer with a number only, understood to be in ng/mL.

Report Cmax for CC(C)(O)c1ccc(-c2cnc3c(n2)N([C@H]2CC[C@H](O)CC2)C(=O)CN3)cn1 [O-Desmethyl metabolite] please.
503

* * *

experiment: Pharmacokinetics of the metabolite produced in vivo after administration of 7.5-60 mg Compound A
test_settings: human, 30 mg, day 15 of once a day administration of about 30 mg of Compound A
reported_endpoint: Cmax (ng/mL)
Number in ng/mL, nothing else.

Could you share which Cmax value was measured for CC(C)(O)c1ccc(-c2cnc3c(n2)N([C@H]2CC[C@H](O)CC2)C(=O)CN3)cn1 [O-Desmethyl metabolite] ?
1770

* * *

experiment: Pharmacokinetics of the metabolite produced in vivo after administration of 7.5-60 mg Compound A
test_settings: human, 15 mg, day 1 of administration of about 15 mg of Compound A
reported_endpoint: half-life (h)
Write down the numeric answer in h and omit the unit.

Suppose we examine the compound CC(C)(O)c1ccc(-c2cnc3c(n2)N([C@H]2CC[C@H](O)CC2)C(=O)CN3)cn1 [O-Desmethyl metabolite] ; what half-life value has been reported?
12

* * *

experiment: Phase 1 crossover pharmacokinetic study of tablet and capsule formulations, single oral dose
Format: in vivo, human
test_settings: male, human; Treatment A: one 20-mg Compound A API-in-capsule, oral, fasted, n = 18; plasma; geometric mean; read-out: AUC0-∞
Method: Certain formulations provided herein were evaluated in a Phase 1, open-label, randomized, crossover study. […] For each period, serial blood samples were collected before dosing (zero hour) and at 0.5, 1, 1.5, 2, 2.5, 3, 4, 6, 8, 12, 24, 48, 72, and 96 hours after dosing. Plasma concentrations of Compound A were determined for determining PK parameters, such as […], AUC0-∞, Cmax, Tmax, t1/2, CL/F, and Vz/F for Compound A. Plasma PK parameters were calculated using non compartmental methods. […]
reported_endpoint: AUC(0-inf) (ng·h/mL)
Quick note: give the figure in ng·h/mL, leave out the unit.

Can you share its AUC(0-inf)? I mean this compound: CO[C@H]1CC[C@H](N2C(=O)CNc3ncc(-c4ccc(C(C)(C)O)nc4)nc32)CC1 [Compound A]
985

Look at this compound and give its reported AUC(0-inf). CC(C)(O)c1ccc(-c2cnc3c(n2)N([C@H]2CC[C@H](O)CC2)C(=O)CN3)cn1 [O-Desmethyl metabolite]
11900
